# Target or test system: T1, integrin αVβ5 (UniProt P06756 31-992; P18084 24-719)
# T1 construct: Coated on the ELISA plate
# T1 sequence (P06756 31-992, chain 1 of 2): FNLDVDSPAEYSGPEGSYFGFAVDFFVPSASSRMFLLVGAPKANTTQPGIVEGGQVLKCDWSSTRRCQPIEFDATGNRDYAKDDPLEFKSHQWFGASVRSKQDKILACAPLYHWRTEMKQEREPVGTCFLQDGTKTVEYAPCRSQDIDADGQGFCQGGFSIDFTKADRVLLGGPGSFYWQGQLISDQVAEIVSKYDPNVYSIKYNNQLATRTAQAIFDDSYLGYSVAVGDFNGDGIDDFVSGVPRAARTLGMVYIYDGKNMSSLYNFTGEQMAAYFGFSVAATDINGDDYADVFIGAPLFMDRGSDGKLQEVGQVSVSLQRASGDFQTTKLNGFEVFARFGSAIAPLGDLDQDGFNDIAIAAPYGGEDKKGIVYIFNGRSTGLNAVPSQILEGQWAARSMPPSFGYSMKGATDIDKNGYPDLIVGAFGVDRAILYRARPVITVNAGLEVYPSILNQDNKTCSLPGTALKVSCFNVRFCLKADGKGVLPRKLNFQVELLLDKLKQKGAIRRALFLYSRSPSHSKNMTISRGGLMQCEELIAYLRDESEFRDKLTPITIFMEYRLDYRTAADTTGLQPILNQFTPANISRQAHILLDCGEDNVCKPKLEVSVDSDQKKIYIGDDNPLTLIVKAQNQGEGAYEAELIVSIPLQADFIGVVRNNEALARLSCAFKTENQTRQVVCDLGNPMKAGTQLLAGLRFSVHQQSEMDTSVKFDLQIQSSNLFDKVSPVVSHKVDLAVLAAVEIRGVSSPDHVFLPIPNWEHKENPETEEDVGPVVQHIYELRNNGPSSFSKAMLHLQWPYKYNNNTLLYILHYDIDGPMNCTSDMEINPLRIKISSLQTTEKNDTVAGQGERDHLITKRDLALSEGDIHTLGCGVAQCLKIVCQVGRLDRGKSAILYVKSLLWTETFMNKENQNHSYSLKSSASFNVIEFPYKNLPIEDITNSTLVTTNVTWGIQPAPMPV
# T1 sequence (P18084 24-719, chain 2 of 2): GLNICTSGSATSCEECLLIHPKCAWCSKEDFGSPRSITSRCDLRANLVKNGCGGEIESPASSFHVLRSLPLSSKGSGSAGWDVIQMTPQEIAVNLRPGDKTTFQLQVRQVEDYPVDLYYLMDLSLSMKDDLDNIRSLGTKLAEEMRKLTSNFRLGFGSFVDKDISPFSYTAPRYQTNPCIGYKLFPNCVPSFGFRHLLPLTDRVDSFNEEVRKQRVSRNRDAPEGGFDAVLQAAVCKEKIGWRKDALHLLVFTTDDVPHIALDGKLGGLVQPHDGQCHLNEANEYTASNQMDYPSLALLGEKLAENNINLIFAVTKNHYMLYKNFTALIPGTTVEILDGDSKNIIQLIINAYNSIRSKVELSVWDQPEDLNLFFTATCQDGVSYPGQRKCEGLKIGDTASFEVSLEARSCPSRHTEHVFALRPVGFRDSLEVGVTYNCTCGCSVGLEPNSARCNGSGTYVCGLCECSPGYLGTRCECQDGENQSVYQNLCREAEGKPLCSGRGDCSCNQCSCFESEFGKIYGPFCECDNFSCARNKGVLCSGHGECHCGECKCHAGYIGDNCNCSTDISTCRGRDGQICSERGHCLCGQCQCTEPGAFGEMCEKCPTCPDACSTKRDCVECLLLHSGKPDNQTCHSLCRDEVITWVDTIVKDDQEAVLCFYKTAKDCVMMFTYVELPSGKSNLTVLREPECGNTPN
# Run description: phage ELISA, integrin coated, anti-M13-HRP
Quantity name: signal (OD)
One number for each entry, in OD.

# return signal for each item in the list
1. M13 phage pKK98 displaying MICA α3 domain with loop 5.3 in loop 1 (designed binder, not shown: large carriers) TVPPMVNVTHLARGDDLTYVTCRASGFYPWNITLSWRQDGVSLSHDTQQWGDVLPDGNGTYQTWVATRICQGEEQRFTCYMEHSGNHSTHPVPSGK
2. M13 phage pKK92 displaying MICA α3 domain with loop 3.1 in loop 1 (designed binder, not shown: large carriers) TVPPMVNVTSRGDHPRTQVTCRASGFYPWNITLSWRQDGVSLSHDTQQWGDVLPDGNGTYQTWVATRICQGEEQRFTCYMEHSGNHSTHPVPSGK
3. M13 phage pKK139 displaying MICA α3 domain with extended 5.1sp in loop 1 and extended 5.1spNH in loop 3 (designed binder, not shown: large carriers) TVPPMVNVTSGGSGGGSVTRGDTFTQSSGGSGGGVTCRASGFYPWNITLSWRQDGVSLSHDTQQWGDVLPDGNGTYQTWVATRISGGSGGGSVTRGDTFTQSSGGSGGGCYMEHSGNHSTHPVPSGK

A.
[1.48, 1.32, 5.36]
